Form field: AD38 Viability Normalized Result (cmpd/DMSO %) at 10 μM (one value per entry).
Tested on: AD38 cells
protocol-notes: Viability of AD38 cells (Promega CellTiter-Glo)
Format: cell-based
measurement-parameters: 10 μM compound, 6 days, CellTiter-Glo luminescence normalized to DMSO control (100%)
reported-metric: AD38 Viability Normalized Result (cmpd/DMSO %) at 10 μM

{"columns": ["compound", "val"],
 "data": [
  ["O=C(NCc1cnc(-c2ccccc2)s1)c1ccc2c(c1)NC(=O)c1ccccc1O2", 97],
  ["Cc1c(C(=O)NCc2cnc(-n3cccn3)s2)ccc2c1NC(=O)c1ccccc1S2(=O)=O [compound 11074]", 103],
  ["O=C(NCc1cnc(-c2ccccc2)s1)c1ccc2c(c1)NC(=O)c1ccccc1S2(=O)=O", 104],
  ["COc1ccc(-c2ncc(CNC(=O)c3ccc4c(c3)NC(=O)c3ccccc3S4(=O)=O)s2)cn1", 98],
  ["Cc1c(C(=O)NCc2cnc(-c3ccccn3)s2)ccc2c1NC(=O)c1ccccc1S2(=O)=O", 90],
  ["O=C(NCc1cnc(CN2CCOCC2)s1)c1ccc2c(c1)NC(=O)c1ccccc1S2(=O)=O", 92],
  ["CN(C)c1ncc(-c2ncc(CNC(=O)c3ccc4c(c3)NC(=O)c3ccccc3S4(=O)=O)s2)cn1", 115],
  ["NS(=O)(=O)c1ccc(-c2ncc(CNC(=O)c3ccc4c(c3)NC(=O)c3ccccc3S4(=O)=O)s2)cc1", 96],
  ["O=C(NCc1cnc(-c2ccc(O)cc2)s1)c1ccc2c(c1)NC(=O)c1cc(F)ccc1S2", 92],
  ["CN(C)c1ncc(-c2ncc(CNC(=O)c3ccc4c(c3)NC(=O)c3ccccc3O4)s2)cn1", 96],
  ["O=C1Cc2cccc(-c3ncc(CNC(=O)c4ccc5c(c4)NC(=O)c4ccccc4S5(=O)=O)s3)c2N1", 91],
  ["O=C1Cc2cc(-c3ncc(CNC(=O)c4ccc5c(c4)NC(=O)c4ccccc4S5(=O)=O)s3)ccc2N1", 102],
  ["CN(CCCOc1ccc(-c2ncc(CNC(=O)c3ccc4c(c3)NC(=O)c3ccccc3S4(=O)=O)s2)cc1)CC(F)(F)F", 92],
  ["O=C(NCc1cnc(-c2ccccc2CO)s1)c1ccc2c(c1)NC(=O)c1ccccc1S2(=O)=O", 113],
  ["O=C(NCc1cnc(-c2ccc3cnccc3c2)s1)c1ccc2c(c1)NC(=O)c1ccccc1S2(=O)=O", 105]
]}

====

Form field: AD38 Viability Normalized Result (cmpd/DMSO %) at 10 μM (one value per entry).
Test system: AD38 cells
protocol-notes: Viability of AD38 cells (Promega CellTiter-Glo)
Type: cell-based
measurement-parameters: 10 μM compound, 6 days, CellTiter-Glo luminescence normalized to DMSO control (100%)
reported-metric: AD38 Viability Normalized Result (cmpd/DMSO %) at 10 μM

{"columns": ["compound", "study-target", "val"],
 "data": [
  ["O=C(NCc1cnc(-c2ccccc2)s1)c1ccc2c(=O)c3ccccc3c(=O)[nH]c2c1", "AD38 cells", 105],
  ["CC(C)(C)OC(=O)N1CCN(C(=O)c2ccc(-c3ncc(CNC(=O)c4ccc5c(c4)NC(=O)c4ccccc4S5(=O)=O)s3)cc2)CC1", "AD38 cells", 103],
  ["O=C(NCc1cnc(-c2ccc(OCCCN3CCC3)cc2)s1)c1ccc2c(c1)NC(=O)c1ccccc1S2(=O)=O [compound 11142]", "AD38 cells", 87],
  ["O=C(NCc1cnc(-c2ccc(F)cc2)s1)c1ccc2c(c1)NC(=O)c1ccccc1O2", "AD38 cells", 96],
  ["CN(CCCOc1ccc(-c2ncc(CNC(=O)c3ccc4c(c3)NC(=O)c3ccccc3S4(=O)=O)s2)cc1)C1CC1", "AD38 cells", 101],
  ["CC(C)CN1c2ccc(C(=O)NCc3cnc(-c4ccc(C#N)cc4F)s3)cc2NC(=O)c2ccccc21", "AD38 cells", 124],
  ["O=C(NCc1cnc(-c2ccc(C#CCCO)cc2)s1)c1ccc2c(c1)NC(=O)c1ccccc1S2(=O)=O", "AD38 cells", 106],
  ["O=C(NCc1cnc(-c2ccc(O)cc2)s1)c1ccc2c(c1)NC(=O)c1c(F)cccc1S2", "AD38 cells", 98],
  ["Nc1ccc(-c2ncc(CNC(=O)c3ccc4c(c3)NC(=O)c3ccccc3S4(=O)=O)s2)nc1", "AD38 cells", 106],
  ["O=C(NCc1cnc(-c2ccc(OCCCN3CCOCC3)cc2)s1)c1ccc2c(c1)NC(=O)c1ccccc1O2", "AD38 cells", 104],
  ["CC(C)(C)NCCCOc1ccc(-c2ncc(CNC(=O)c3ccc4c(c3)NC(=O)c3ccccc3S4(=O)=O)s2)cc1", "AD38 cells", 98],
  ["O=C(NCc1cnc(N2CCC(O)CC2)s1)c1ccc2c(c1)NC(=O)c1ccccc1O2", "AD38 cells", 94],
  ["O=C(NCc1cnc(-n2cc(F)cn2)s1)c1ccc2c(c1)NC(=O)c1ccccc1S2(=O)=O", "AD38 cells", 99],
  ["NCCCS(=O)(=O)c1ccc(-c2ncc(CNC(=O)c3ccc4c(c3)NC(=O)c3ccccc3S4(=O)=O)s2)cc1.O=C(O)C(F)(F)F", "AD38 cells", 103]
]}
